tested on: MRSA clinical isolate OU6; assay: Clinical laboratory susceptibility (MicroScan), MRSA isolate 6; type: cell-based, S. aureus; settings: MicroScan PC33 gram positive panel
measurement label: MIC
Hi, when you answer, please include the unit after the number. Thanks!

Could you tell me which MIC is on file for CC(=O)NC[C@H]1CN(c2ccc(N3CCOCC3)c(F)c2)C(=O)O1 [linezolid] ? 2 µg/mL

====

Can you tell me MIC for the items I'm about to list?
tested on: MRSA clinical isolate OU11; assay: Clinical laboratory susceptibility (MicroScan), MRSA isolate 11; type: cell-based, S. aureus; details: MicroScan PC33 gram positive panel

Recorded MIC, per entry:
CCCCCCCCCC(=O)N[C@@H](Cc1c[nH]c2ccccc12)C(=O)N[C@H](CC(N)=O)C(=O)N[C@@H](CC(=O)O)C(=O)N[C@@H]1C(=O)NCC(=O)N[C@@H](CCCN)C(=O)N[C@@H](CC(=O)O)C(=O)N[C@H](C)C(=O)N[C@@H](CC(=O)O)C(=O)NCC(=O)N[C@H](CO)C(=O)N[C@@H]([C@H](C)CC(=O)O)C(=O)N[C@@H](CC(=O)c2ccccc2N)C(=O)O[C@@H]1C [Daptomycin]    ≤ 0.5 µg/mL
CC(=O)NC[C@H]1CN(c2ccc(N3CCOCC3)c(F)c2)C(=O)O1 [linezolid]    2 µg/mL
CN(C)[C@@H]1C(O)=C(C(N)=O)C(=O)[C@@]2(O)C(O)=C3C(=O)c4c(O)cccc4[C@@](C)(O)[C@H]3C[C@@H]12 [Tetracycline]    ≤ 4 µg/mL

For each of the items listed, what is its MIC?
1. Cc1onc(-c2ccccc2)c1C(=O)N[C@@H]1C(=O)N2[C@@H]1SC(C)(C)[C@@H]2C(=O)O [oxacillin]
2. CN[C@H](CC(C)C)C(=O)N[C@H]1C(=O)N[C@@H](CC(N)=O)C(=O)N[C@H]2C(=O)N[C@H]3C(=O)N[C@H](C(=O)N[C@H](C(=O)O)c4cc(O)cc(O)c4-c4cc3ccc4O)[C@H](O)c3ccc(c(Cl)c3)Oc3cc2cc(c3O[C@@H]2O[C@H](CO)[C@@H](O)[C@H](O)[C@H]2O[C@H]2C[C@](C)(N)[C@H](O)[C@H](C)O2)Oc2ccc(cc2Cl)[C@H]1O [vancomycin]
3. CCC[C@@H]1C[C@@H](C(=O)N[C@@H]([C@H]2O[C@H](SC)[C@H](O)[C@@H](O)[C@H]2O)[C@H](C)Cl)N(C)C1 [Clindamycn]
4. CC[C@H]1OC(=O)[C@H](C)[C@@H](O[C@H]2C[C@@](C)(OC)[C@@H](O)[C@H](C)O2)[C@H](C)[C@@H](O[C@@H]2O[C@H](C)C[C@H](N(C)C)[C@H]2O)[C@](C)(O)C[C@@H](C)C(=O)[C@H](C)[C@@H](O)[C@]1(C)O [Erythromycin]

["> 2 µg/mL", "1 µg/mL", "> 4 µg/mL", "> 4 µg/mL"]
